methodSummary: qHTS for Inhibitors of human tyrosyl-DNA phosphodiesterase 1 (TDP1): qHTS in cells in absence of CPT; further: nearly all actives have a fitted effect of over 55% in size
testParameters: DT40 Tdp1-/- hTDP1 cells, no CPT, ATP luminescence, 48 h
Among all 420,000 compounds or so, about 64,000 (15%) were called active. Inconclusive results (about 27%) are left out. The call rests on the fitted dose curve; in most records, active means well fitted inhibition curve with a large enough effect; inconclusive means small, poorly fitted or top-dose-only effect; inactive means flat fitted curve, though single readings scatter. These entries were drawn from the full list.
Allowed answers: label 1 = active, label 0 = inactive

Worked examples follow.
{"columns": ["molecule", "categoryLabel"],
 "data": [
  ["N#Cc1nc(COc2ccc(Cl)cc2)oc1N1CCCC1", "label 0"],
  ["NC(=O)c1oc2ccccc2c1NC(=O)CS(=O)(=O)c1ccccc1", "label 0"],
  ["Cc1ccccc1CSc1nnc(Cn2c(=O)sc3ccccc32)n1C", "label 0"],
  ["CCOC(=O)[C@]12CCCC=C1N(Cc1ccc(Cl)cc1Cl)C(=O)[C@H](CC(=O)N1CCCCC1)C2", "label 1"],
  ["COc1ccc(NC(=O)Cn2ncn3c(cc4ccccc43)c2=O)c(OC)c1OC", "label 0"],
  ["COc1ccccc1OCCNC(=O)C(CCSC)NC(=O)COc1ccccc1 (centres undefined)", "label 0"],
  ["N/C(=N\\OC(=O)CCc1ccccc1)c1cccnc1", "label 0"],
  ["CC(C)Nc1nc(N(c2ccccc2)c2ccccc2)nc(-n2ccnc2)n1", "label 0"],
  ["O=c1c2[nH]c3ccc(Cl)cc3c2ncn1Cc1ccccn1", "label 0"],
  ["COc1ccc(CNC(=O)c2nnn(CC(=O)Nc3cc(C)cc(C)c3)c2N)cc1", "label 0"]
]}

GET /call?item= "Cc1cccc2cc(C#N)c(N3CCCC3)nc12" returns the recorded outcome of this test.
label 0

###

methodSummary: qHTS for Inhibitors of human tyrosyl-DNA phosphodiesterase 1 (TDP1): qHTS in cells in absence of CPT; further: nearly all actives have a fitted effect of over 55% in size
testParameters: DT40 Tdp1-/- hTDP1 cells, no CPT, ATP luminescence, 48 h
Out of some 420,000 compounds screened, about 64,000 (15%) were called active. Inconclusive results (about 27%) are left out. Calls come from the whole dose curve; as a rule, active = well fitted inhibition curve with a large enough effect; inconclusive = small, poorly fitted or top-dose-only effect; inactive = flat fitted curve, though single readings scatter. These entries were drawn from the full list.
Allowed answers: active, inactive

{"columns": ["molecule", "categoryLabel"],
 "data": [
  ["Cc1ccc(SCCC(=O)NCc2ccccn2)cc1", "inactive"]
]}

GET /call?item= "CC(=O)c1sc2nc(SCC(=O)N3CCCCC3)[nH]c(=O)c2c1C" returns the recorded outcome of this test.
inactive

GET /call?item= "O=C(COC(=O)c1ccccc1SCC(=O)N1CCCC1)Nc1ccccc1OC(F)F" returns the recorded outcome of this test.
inactive

###

methodSummary: qHTS for Inhibitors of human tyrosyl-DNA phosphodiesterase 1 (TDP1): qHTS in cells in absence of CPT; further: nearly all actives have a fitted effect of over 55% in size
testParameters: DT40 Tdp1-/- hTDP1 cells, no CPT, ATP luminescence, 48 h
Method: Human tyrosyl-DNA phosphodiesterase 1 (TDP1) is a novel repair gene, and we propose to use it as a new target for anticancer drug development. […] For the primary screen, Tdp1-/-;hTDP1 cells will be exposed to small molecules in the presence or absence of CPT, and their growth kinetics will be evaluated after 48 hours by measuring ATP activity. […] The hit compounds will then be evaluated in the presence or absence of CPT using Tdp1-/- cells. […]
Hit rate of the full screen: of about 420,000 compounds, about 64,000 (15%) were called active. Another 27% or so got no clear call; they are omitted. Calls come from the whole dose curve; as a rule, active = well fitted inhibition curve with a large enough effect; inconclusive = small, poorly fitted or top-dose-only effect; inactive = flat fitted curve, though single readings scatter. These entries were drawn from the full list.
Allowed answers: active, inactive

GET /call?item= "C=C(C)C(=O)O[C@H]1C/C(C)=C\C(=O)/C=C(\C)[C@H](O)[C@@H]2OC(=O)C(=C)[C@@H]21" returns the recorded outcome of this test.
active

###

methodSummary: qHTS for Inhibitors of human tyrosyl-DNA phosphodiesterase 1 (TDP1): qHTS in cells in absence of CPT; further: nearly all actives have a fitted effect of over 55% in size
testParameters: DT40 Tdp1-/- hTDP1 cells, no CPT, ATP luminescence, 48 h
About 64,000 (15%) of roughly 420,000 compounds were called active. Roughly 27% stayed inconclusive and do not appear here. The call rests on the fitted dose curve; in most records, active means well fitted inhibition curve with a large enough effect; inconclusive means small, poorly fitted or top-dose-only effect; inactive means flat fitted curve, though single readings scatter. Not all results are given here.
Allowed answers: active, inactive

Worked examples follow.
{"columns": ["compound", "categoryLabel"],
 "data": [
  ["COc1ccc(N2C(=O)CCC(C(=O)Nc3ccccn3)C2c2ccc(OC)c(OC)c2)cc1 (stereo not given)", "inactive"],
  ["O=C1c2ccccc2-c2ncnc3c(N4CCOCC4)cc(N4CCOCC4)c1c23", "active"],
  ["COc1cccc(-n2c(SCC(=O)NC3CCS(=O)(=O)C3)nc3ccccc3c2=O)c1 (stereo not given)", "inactive"]
]}

GET /call?item= "O=S(=O)(N1CCOCC1)N1CCN(c2ccccc2F)CC1" returns the recorded outcome of this test.
inactive

GET /call?item= "COC(=O)N(C)C[C@@H]1OCc2cnnn2CCCC(=O)N([C@@H](C)CO)C[C@@H]1C" returns the recorded outcome of this test.
inactive

GET /call?item= "O=S(=O)(Nc1cc(Cl)ccc1N1CCOCC1)c1ccccc1Cl" returns the recorded outcome of this test.
inactive

GET /call?item= "N#CC1(Nc2ccc(-c3ccc(Cl)cc3)cc2)CCCC1" returns the recorded outcome of this test.
inactive

GET /call?item= "CC(C)S(=O)(=O)c1oc(-c2ccc(F)cc2)nc1S(=O)(=O)c1ccc(F)cc1" returns the recorded outcome of this test.
active

GET /call?item= "CCCS(=O)(=O)Nc1c(C(=O)O)[nH]c2ccccc12" returns the recorded outcome of this test.
inactive

GET /call?item= "CCOc1cc(/C=N/O)ccc1OCc1ccccc1F" returns the recorded outcome of this test.
inactive

###

methodSummary: qHTS for Inhibitors of human tyrosyl-DNA phosphodiesterase 1 (TDP1): qHTS in cells in absence of CPT; further: nearly all actives have a fitted effect of over 55% in size
testParameters: DT40 Tdp1-/- hTDP1 cells, no CPT, ATP luminescence, 48 h
About 64,000 (15%) of roughly 420,000 compounds were called active. Roughly 27% stayed inconclusive and do not appear here. Calls follow the shape of the dose curve; as a rule, active = well fitted inhibition curve with a large enough effect; inconclusive = small, poorly fitted or top-dose-only effect; inactive = flat fitted curve, though single readings scatter. Not all results are given here.
Allowed answers: active, inactive

GET /call?item= "COc1ccc(NC(=O)NCc2ccc3c(c2)OCO3)c(OC)c1" returns the recorded outcome of this test.
inactive

GET /call?item= "CCOC(=O)c1ccc[n+](CC(=O)Nc2ccccc2OC(F)F)c1" returns the recorded outcome of this test.
inactive

GET /call?item= "COc1ccccc1C(=O)Nc1ccnn1C1CCN(C(=O)C(C)(C)C)CC1" returns the recorded outcome of this test.
inactive

GET /call?item= "COc1cccc(NC(=O)c2nn(-c3ccc(OC)cc3OC)c(=O)c3ccccc23)c1" returns the recorded outcome of this test.
inactive

GET /call?item= "O=C1CN(C(=O)CN2C(=O)NC3(CCCCC3)C2=O)c2ccccc2N1" returns the recorded outcome of this test.
inactive

###

methodSummary: qHTS for Inhibitors of human tyrosyl-DNA phosphodiesterase 1 (TDP1): qHTS in cells in absence of CPT; further: nearly all actives have a fitted effect of over 55% in size
testParameters: DT40 Tdp1-/- hTDP1 cells, no CPT, ATP luminescence, 48 h
Among all 420,000 compounds or so, about 64,000 (15%) were called active. Another 27% or so got no clear call; they are omitted. The call rests on the fitted dose curve; in most records, active means well fitted inhibition curve with a large enough effect; inconclusive means small, poorly fitted or top-dose-only effect; inactive means flat fitted curve, though single readings scatter. Not all results are given here.
Allowed answers: t for active, f for inactive

Worked examples follow.
{"columns": ["recordSmiles", "categoryLabel"],
 "data": [
  ["CCOC(=O)CSc1nnc(CNC(=O)c2cccs2)n1-c1cc(OC)ccc1OC", "f"],
  ["CC1(C)CN(c2ccc(-c3ccnc4ncnn34)cc2)C1=O", "f"],
  ["COC(=O)c1ccc(OCC(=O)NC(C)(C)C)cc1", "f"],
  ["CC(=O)Nc1ccc(NC(=O)CC2CCCC2)cc1", "f"],
  ["COc1ccc(-c2nnc(SCc3cccnc3)o2)cc1", "f"]
]}

Then this compound:
GET /call?item= "O=C1Oc2ccccc2C(=O)/C1=C/c1ccccc1O" returns the recorded outcome of this test.
t

###

methodSummary: qHTS for Inhibitors of human tyrosyl-DNA phosphodiesterase 1 (TDP1): qHTS in cells in absence of CPT; further: nearly all actives have a fitted effect of over 55% in size
testParameters: DT40 Tdp1-/- hTDP1 cells, no CPT, ATP luminescence, 48 h
In all, about 420,000 compounds went through this assay and about 64,000 (15%) were called active. Not shown: some 27% with an inconclusive outcome. The call rests on the fitted dose curve; in most records, active means well fitted inhibition curve with a large enough effect; inconclusive means small, poorly fitted or top-dose-only effect; inactive means flat fitted curve, though single readings scatter. A selection follows.
Allowed answers: active, inactive

{"columns": ["compound", "categoryLabel"],
 "data": [
  ["O=C(O)c1ccc(/C=N/Nc2nc(N3CCCCC3)nc(N3CCCCC3)n2)cc1", "inactive"],
  ["COc1cc2c(cc1OC)C(Nc1ccc(S(N)(=O)=O)cc1)=NC(C)(C)C2", "inactive"],
  ["CCCC1C(=O)N2C(N(C)C)=Nc3ccc(C)cc3N2C1=O (stereo unspecified)", "inactive"],
  ["O=C(NCc1ccccc1Cl)c1csc2c1CCCCC2", "inactive"],
  ["O=C(CN1CCN(c2ccccn2)CC1)N1CCc2ccccc21", "inactive"],
  ["COC(=O)c1cc2n(n1)CCCNC2=O", "inactive"],
  ["CC(C)CN(C(=O)CSc1ncnc2sccc12)C1CCS(=O)(=O)C1 (stereo unspecified)", "inactive"],
  ["Cc1ccc(CN2CCCn3nc(C(=O)NCc4ccccc4Cl)cc3C2=O)cc1", "active"],
  ["CCOC(=O)c1c(NC(=O)/C(C#N)=C/c2ccccc2)sc2c1CCC2", "inactive"],
  ["O=C1Nc2ccc(Br)cc2/C1=N/N=C/C1=C(N2CCOCC2)C(=C\\c2ccccc2)/CC1", "active"]
]}

Then this compound:
GET /call?item= "COc1cc(CNC(=O)c2cc3n(n2)CCCN(Cc2cccc(F)c2)C3=O)cc(OC)c1OC" returns the recorded outcome of this test.
active

Values were extracted from PubChem BioAssay AID686978.
